Value source: the Human Domainome abundance scans (Beltran et al. 2025)

B1: Far upstream element-binding protein 3, residues 75 to 150; numbered along this chain, Q96I24 (parent)
chain: RTVITEEFKVPDKMVGFIIGRGGEQISRIQAESGCKIQIASESSGIPERPCVLTGTPESIEQAKRLLGQIVDRCRN

variants of: B1; test: abundance fitness (aPCA) (normalised: wild type 0, dead -1); higher = more abundant; growth selection in yeast, the domain comes from the species named; details: Homo sapiens
Class rule met: abundance fitness at least -0.2. Class rule not met: abundance fitness below -0.2.

- mutationName: "K36Q"
  assignedLabel: "rule met"
- mutationName: "K9M"
  assignedLabel: "rule met"
- mutationName: "Q30N"
  assignedLabel: "rule not met"
- mutationName: "Q62N"
  assignedLabel: "rule met"
- mutationName: "R73C"
  assignedLabel: "rule met"
- mutationName: "G68T"
  assignedLabel: "rule met"
- mutationName: "F8K"
  assignedLabel: "rule not met"
- mutationName: "G22Y"
  assignedLabel: "rule met"
- mutationName: "T2E"
  assignedLabel: "rule met"
- mutationName: "T56P"
  assignedLabel: "rule met"
- mutationName: "T56L"
  assignedLabel: "rule met"
- mutationName: "P50T"
  assignedLabel: "rule met"
- mutationName: "R75H"
  assignedLabel: "rule met"
- mutationName: "G68L"
  assignedLabel: "rule met"
- mutationName: "K9R"
  assignedLabel: "rule met"
- mutationName: "E6W"
  assignedLabel: "rule not met"
- mutationName: "M14G"
  assignedLabel: "rule not met"
- mutationName: "E42S"
  assignedLabel: "rule met"
- mutationName: "C51M"
  assignedLabel: "rule met"
- mutationName: "I37T"
  assignedLabel: "rule not met"
- mutationName: "K13A"
  assignedLabel: "rule met"
- mutationName: "R73W"
  assignedLabel: "rule met"
- mutationName: "D72K"
  assignedLabel: "rule met"
- mutationName: "E58S"
  assignedLabel: "rule met"
- mutationName: "P11A"
  assignedLabel: "rule not met"
- mutationName: "E61H"
  assignedLabel: "rule met"
- mutationName: "I26M"
  assignedLabel: "rule met"
- mutationName: "R75E"
  assignedLabel: "rule met"
- mutationName: "I4E"
  assignedLabel: "rule met"
- mutationName: "R65N"
  assignedLabel: "rule met"
- mutationName: "E61V"
  assignedLabel: "rule met"
- mutationName: "E48R"
  assignedLabel: "rule met"
- mutationName: "V10A"
  assignedLabel: "rule not met"
- mutationName: "C35I"
  assignedLabel: "rule not met"
- mutationName: "I60V"
  assignedLabel: "rule met"
- mutationName: "Q25M"
  assignedLabel: "rule met"
- mutationName: "S27Y"
  assignedLabel: "rule not met"
- mutationName: "T54P"
  assignedLabel: "rule not met"
- mutationName: "M14H"
  assignedLabel: "rule met"
- mutationName: "I70F"
  assignedLabel: "rule met"
- mutationName: "D72M"
  assignedLabel: "rule met"
- mutationName: "L67T"
  assignedLabel: "rule not met"
- mutationName: "Q25H"
  assignedLabel: "rule met"
- mutationName: "V10D"
  assignedLabel: "rule not met"
- mutationName: "R65F"
  assignedLabel: "rule met"
